The origin of these recorded values is paper PMC2757176.

# reported Kd; entries follow
molecular target: FYN-SH3-SH2 (aa 82 to 248) (human, UniProt P06241 82-248); assay: SPR
Sequence (P06241 82-248): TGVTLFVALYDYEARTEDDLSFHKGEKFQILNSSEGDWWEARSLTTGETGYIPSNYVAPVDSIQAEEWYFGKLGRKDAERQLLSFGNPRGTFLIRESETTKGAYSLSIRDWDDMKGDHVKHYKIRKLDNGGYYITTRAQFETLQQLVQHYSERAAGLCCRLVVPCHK
Non-standard residues stand in square brackets, D forms with d. No end group written: not given here. *: point of attachment. Biotin = O=C1N[C@H]2[C@H](CS[C@H]2CCCCC(=O)*)N1; pY = N[C@@H](Cc1ccc(OP(=O)(O)O)cc1)C(=O)O

{"binder": "Biotin-EFLTI[pY]EDVKD [CD244 ITSM 1 peptide, biotinylated, phosphorylated]", "Kd": "~0.2 µM"}
{"binder": "Biotin-HPPPPPGHRSQAPSHRPPPPGHRVQ [CD2-281-305 peptide, biotinylated]", "Kd": "~4 µM"}

Would you kindly look at the next entry?
Which measured Kd value corresponds to Biotin-QKGPPLPRPRVQPKPPHG [CD2-322 peptide, biotinylated] ?
~4 µM
